# Tested on: giant foxtail
# Assay Summary: Test A pre-/postemergence greenhouse test
# Type: in vivo, Setaria faberi
# Study Conditions: Postemergence, 125 g ai/ha; 0 to 100 scale where 0 is no effect and 100 is complete control
Endpoint: Plant response rating, Foxtail, Giant

> print(dat)
                                    molecule  target.entity                               endpoint  numeric.value
 1  CC(c1c(C(F)(F)F)nn(CC(F)(F)F)c1Cl)[S+]([O-])c1cccc[n+]1[O-] (centres unmarked) [Compound 46]  giant foxtail  Plant response rating, Foxtail, Giant             70
 2  Cn1nc(C(F)(F)F)c(CS(=O)(=O)c2ccc(F)c[n+]2[O-])c1OC(F)F [Compound 107]  giant foxtail  Plant response rating, Foxtail, Giant             70
 3  Cc1cc[n+]([O-])c([S+]([O-])Cc2c(C(F)(F)C(F)(F)F)nn(C)c2OCC(F)(F)F)c1 (centres unmarked) [Compound 91]  giant foxtail  Plant response rating, Foxtail, Giant             80
 4  Cn1nc(C(F)(F)F)c(C[S+]([O-])c2cccc[n+]2[O-])c1OCC(F)(F)C(F)(F)F (centres unmarked) [Compound 78]  giant foxtail  Plant response rating, Foxtail, Giant             80
 5  Cc1cc[n+]([O-])c([S+]([O-])Cc2c(C(F)(F)F)nn(C)c2OCC(F)F)c1 (centres unmarked) [Compound 86]  giant foxtail  Plant response rating, Foxtail, Giant             80
 6  Cn1nc(C(F)(F)F)c(C[S+]([O-])c2cc(C3CC3)cc[n+]2[O-])c1OC(F)F (centres unmarked) [Compound 120]  giant foxtail  Plant response rating, Foxtail, Giant             80
 7  Cn1nc(C(F)(F)C(F)(F)F)c(CS(=O)(=O)c2cccc[n+]2[O-])c1OCC(F)(F)F [Compound 84]  giant foxtail  Plant response rating, Foxtail, Giant             70
 8  CCn1nc(C(F)(F)F)c(CS(=O)(=O)c2cccc[n+]2[O-])c1OCC(F)(F)F [Compound 63]  giant foxtail  Plant response rating, Foxtail, Giant             80
 9  C#CCOc1c(CS(=O)(=O)c2cccc[n+]2[O-])c(C(F)(F)F)nn1C [Compound 103]  giant foxtail  Plant response rating, Foxtail, Giant             80
10  [O-][n+]1ccccc1[S+]([O-])Cc1c(C(F)(F)F)nn(CC(F)(F)F)c1Cl (centres unmarked) [Compound 43]  giant foxtail  Plant response rating, Foxtail, Giant             70
11  Cc1cc[n+]([O-])c(S(=O)(=O)Cc2c(C(F)(F)F)nn(C)c2OCC(F)F)c1 [Compound 94]  giant foxtail  Plant response rating, Foxtail, Giant             50
12  Cc1cc[n+]([O-])c([S+]([O-])Cc2c(C(F)(F)F)nn(C)c2OC(C)C(F)(F)F)c1 (centres unmarked) [Compound 88]  giant foxtail  Plant response rating, Foxtail, Giant             50
13  Cc1cc[n+]([O-])c([S+]([O-])Cc2c(C(F)(F)F)nn(C)c2OCC(F)(F)C(F)(F)F)c1 (centres unmarked) [Compound 90]  giant foxtail  Plant response rating, Foxtail, Giant             50
14  Cn1nc(C(F)(F)C(F)(F)F)c(CS(=O)(=O)c2ccc(Cl)c[n+]2[O-])c1OCC(F)(F)F [Compound 100]  giant foxtail  Plant response rating, Foxtail, Giant             50

* * *

# Test system: morningglory
# Assay Summary: Test A pre-/postemergence greenhouse test
# Type: in vivo, Ipomoea spp.
# Study Conditions: Postemergence, 500 g ai/ha; 0 to 100 scale, 0 is no effect, 100 is complete control
Endpoint: Morningglory plant response rating

> print(dat)
                                   molecule  target.entity  result
1  CC(c1c(C(F)(F)F)nn(C)c1OC(F)F)S(=O)(=O)c1ccc(Br)c[n+]1[O-] (racemic)   morningglory       0
2  Cn1nc(C(F)(F)F)c(C[S+]([O-])c2c(F)ccc[n+]2[O-])c1Cl (centres unmarked)   morningglory      20
3  CC(Oc1c(C[S+]([O-])c2ccc(Cl)c[n+]2[O-])c(C(F)(F)F)nn1C)C(F)(F)F (centres unmarked)   morningglory     100
4  Cn1nc(C(F)(F)F)c(CS(=O)(=O)c2ccc(Cl)c[n+]2[O-])c1OCC(F)F   morningglory      40
5  Cc1cc[n+]([O-])c(S(=O)(=O)Cc2c(C(F)(F)F)nn(C)c2OCC(F)(F)F)c1   morningglory      80
6  Cc1cc[n+]([O-])c([S+]([O-])C(C)c2c(C(F)(F)F)nn(C)c2Cl)c1 (mixture of isomers)   morningglory       0
7  O=S(=O)(Cc1c(C(F)(F)F)nn(CC(F)(F)F)c1Cl)c1cccc[n+]1[O-]   morningglory      40
8  CC(c1c(C(F)(F)F)nn(C)c1OCC(F)(F)F)S(=O)(=O)c1cccc[n+]1[O-] (racemic)   morningglory      90

* * *

# Tested on: duck salad
# Assay Summary: Test C flooded paddy test
# Format: in vivo, Heteranthera limosa
# Study Conditions: Flood, 31 g ai/ha; scale 0 to 100 (0 no effect, 100 complete control)
The following compounds are listed with their measured Plant response rating, Ducksalad values.
Endpoint: Plant response rating, Ducksalad

> print(dat)
                                    compound  target.entity                          endpoint  numeric.value
 1  Cn1nc(C(F)(F)F)c(C(Cl)S(=O)(=O)c2ccc(Cl)c[n+]2[O-])c1Cl (racemic)     duck salad  Plant response rating, Ducksalad              0
 2  CC(c1c(C(F)(F)F)nn(C)c1Cl)S(=O)(=O)c1ccc(Cl)c[n+]1[O-] (racemic)     duck salad  Plant response rating, Ducksalad             20
 3  Cn1nc(C(F)(F)F)c(CS(=O)(=O)c2ccc(Br)c[n+]2[O-])c1OC(F)F     duck salad  Plant response rating, Ducksalad              0
 4  CC(c1c(C(F)(F)F)nn(C)c1Cl)S(=O)(=O)c1cccc[n+]1[O-] (stereo not shown)     duck salad  Plant response rating, Ducksalad             30
 5  CC(c1c(C(F)(F)F)nn(C)c1OC(F)F)S(=O)(=O)c1cc(C(C)(C)C)cc[n+]1[O-] (racemic)     duck salad  Plant response rating, Ducksalad             40
 6  Cn1nc(C(F)(F)F)c(C[S+]([O-])c2cc(C(C)(C)C)cc[n+]2[O-])c1OC(F)F (racemic)     duck salad  Plant response rating, Ducksalad              0
 7  CC(c1c(C(F)(F)F)nn(C)c1OCC(F)(F)F)S(=O)(=O)c1cccc[n+]1[O-] (racemic)     duck salad  Plant response rating, Ducksalad              0
 8  CC(c1c(C(F)(F)F)nn(C)c1OC(F)F)S(=O)(=O)c1ccc(Br)c[n+]1[O-] (racemic)     duck salad  Plant response rating, Ducksalad              0
 9  Cc1cc[n+]([O-])c(S(=O)(=O)C(C)c2c(C(F)(F)F)nn(C)c2Cl)c1 (racemic)     duck salad  Plant response rating, Ducksalad             40
10  Cn1nc(C(F)(F)F)c(CS(=O)(=O)c2cc(Br)cc[n+]2[O-])c1Cl     duck salad  Plant response rating, Ducksalad              0

* * *

The following compounds are listed with their measured Plant response rating, Barnyardgrass values.
# System: barnyardgrass
# Assay Summary: Test A pre-/postemergence greenhouse test
# Assay type: in vivo, Echinochloa crus-galli
# Study Conditions: Postemergence, 125 g ai/ha; 0 to 100 scale where 0 is no effect and 100 is complete control
Endpoint: Plant response rating, Barnyardgrass

> print(dat)
                                   compound  numeric.value
1  CC(C)c1cc[n+]([O-])c(S(=O)(=O)Cc2c(C(F)(F)F)nn(C)c2OCC(F)(F)F)c1 [Compound 111]             50
2  Cn1nc(C(F)(F)F)c(C[S+]([O-])c2cc(Cl)cc[n+]2[O-])c1OCC(F)(F)F (stereo not drawn) [Compound 68]             50
3  CCCc1cc[n+]([O-])c([S+]([O-])Cc2c(C(F)(F)F)nn(C)c2OCC(F)(F)F)c1 (stereo not drawn) [Compound 114]             50

* * *

The following molecules are listed with their measured Soybean plant response rating values.
# Test system: soybean
# Assay Summary: Test C pre-/postemergence test
# Format: in vivo, Glycine max
# Study Conditions: preemergence, 250 g ai/ha; scale 0 (no effect) to 100 (complete control)
Endpoint: Soybean plant response rating

> print(dat)
                                   molecule  numeric.value
1  [O-][n+]1cc(Cl)ccc1[S+]([O-])Cc1c(C(F)(F)F)nn(CC(F)(F)F)c1Cl (stereo not drawn) [Compound 47]             80
2  CC(Oc1c(C[S+]([O-])c2ccc(Cl)c[n+]2[O-])c(C(F)(F)F)nn1C)C(F)(F)F (stereo not drawn) [Compound 87]             80
3  Cc1cc[n+]([O-])c(S(=O)(=O)Cc2c(C(F)(F)F)nn(C)c2OCC(F)F)c1 [Compound 94]             80
